- Target System: human Cav3.2 channels (Homo sapiens)
- Construct: expressed in transfected cells; host or cells: HEK293 cells (ATCC No. CRL-1573), plasmid pcDNA3.1(+)
- Assay Comment: Electrophysiological evaluation, whole-cell patch-clamp with automatic patch-clamp system
- Format: cell-based
- Assay Context: 0.3 μM, holding potential −80 mV; read-out: Cav3.2 channel current inhibition ratio at 0.3 μM of test compound (holding potential −80 mV)
- Method: Electrophysiological Evaluation Stable cell line expressing human Cav3.2 channels, which had been produced by Test method (1) of Example 140, was seeded in a 10-cm dish using DMEM medium containing 10% FBS, and the cells were cultured for 24 hours or longer under the conditions of 37° C. and 5% CO2. The cells were detached using Accutase and were used after being suspended in ice-cold extracellular solution. […]
In this section, each of the compounds is paired with its reported inhibition at 0.3 µM.
Lab book: enter the figure in %, no units written.

INSERT INTO assay_data (compound, assay_metric, unit_abbrev, test_value) VALUES
  ('C[C@@H](NC(=O)C1CC1c1nc2ccccc2[nH]1)c1ccc(C(=O)O)s1 (single isomer, unassigned) [Example 26]', 'inhibition at 0.3 µM', '%', 19);

Now consider the entry below.
Form: Entry = C[C@@H](NC(=O)C1CC1c1nc2ccccc2[nH]1)c1ccc(OCC(F)(F)F)s1 (single isomer, unassigned) [Example 3A] | System = human Cav3.2 channels (Homo sapiens) | inhibition at 0.3 µM = ____ 60

---

- Target System: human Cav3.2 channels (Homo sapiens, UniProt O95180)
- Construct: expressed in transfected cells; host or cells: HEK293 cells (ATCC No. CRL-1573), plasmid pcDNA3.1(+)
- Sequence (O95180 whole entry): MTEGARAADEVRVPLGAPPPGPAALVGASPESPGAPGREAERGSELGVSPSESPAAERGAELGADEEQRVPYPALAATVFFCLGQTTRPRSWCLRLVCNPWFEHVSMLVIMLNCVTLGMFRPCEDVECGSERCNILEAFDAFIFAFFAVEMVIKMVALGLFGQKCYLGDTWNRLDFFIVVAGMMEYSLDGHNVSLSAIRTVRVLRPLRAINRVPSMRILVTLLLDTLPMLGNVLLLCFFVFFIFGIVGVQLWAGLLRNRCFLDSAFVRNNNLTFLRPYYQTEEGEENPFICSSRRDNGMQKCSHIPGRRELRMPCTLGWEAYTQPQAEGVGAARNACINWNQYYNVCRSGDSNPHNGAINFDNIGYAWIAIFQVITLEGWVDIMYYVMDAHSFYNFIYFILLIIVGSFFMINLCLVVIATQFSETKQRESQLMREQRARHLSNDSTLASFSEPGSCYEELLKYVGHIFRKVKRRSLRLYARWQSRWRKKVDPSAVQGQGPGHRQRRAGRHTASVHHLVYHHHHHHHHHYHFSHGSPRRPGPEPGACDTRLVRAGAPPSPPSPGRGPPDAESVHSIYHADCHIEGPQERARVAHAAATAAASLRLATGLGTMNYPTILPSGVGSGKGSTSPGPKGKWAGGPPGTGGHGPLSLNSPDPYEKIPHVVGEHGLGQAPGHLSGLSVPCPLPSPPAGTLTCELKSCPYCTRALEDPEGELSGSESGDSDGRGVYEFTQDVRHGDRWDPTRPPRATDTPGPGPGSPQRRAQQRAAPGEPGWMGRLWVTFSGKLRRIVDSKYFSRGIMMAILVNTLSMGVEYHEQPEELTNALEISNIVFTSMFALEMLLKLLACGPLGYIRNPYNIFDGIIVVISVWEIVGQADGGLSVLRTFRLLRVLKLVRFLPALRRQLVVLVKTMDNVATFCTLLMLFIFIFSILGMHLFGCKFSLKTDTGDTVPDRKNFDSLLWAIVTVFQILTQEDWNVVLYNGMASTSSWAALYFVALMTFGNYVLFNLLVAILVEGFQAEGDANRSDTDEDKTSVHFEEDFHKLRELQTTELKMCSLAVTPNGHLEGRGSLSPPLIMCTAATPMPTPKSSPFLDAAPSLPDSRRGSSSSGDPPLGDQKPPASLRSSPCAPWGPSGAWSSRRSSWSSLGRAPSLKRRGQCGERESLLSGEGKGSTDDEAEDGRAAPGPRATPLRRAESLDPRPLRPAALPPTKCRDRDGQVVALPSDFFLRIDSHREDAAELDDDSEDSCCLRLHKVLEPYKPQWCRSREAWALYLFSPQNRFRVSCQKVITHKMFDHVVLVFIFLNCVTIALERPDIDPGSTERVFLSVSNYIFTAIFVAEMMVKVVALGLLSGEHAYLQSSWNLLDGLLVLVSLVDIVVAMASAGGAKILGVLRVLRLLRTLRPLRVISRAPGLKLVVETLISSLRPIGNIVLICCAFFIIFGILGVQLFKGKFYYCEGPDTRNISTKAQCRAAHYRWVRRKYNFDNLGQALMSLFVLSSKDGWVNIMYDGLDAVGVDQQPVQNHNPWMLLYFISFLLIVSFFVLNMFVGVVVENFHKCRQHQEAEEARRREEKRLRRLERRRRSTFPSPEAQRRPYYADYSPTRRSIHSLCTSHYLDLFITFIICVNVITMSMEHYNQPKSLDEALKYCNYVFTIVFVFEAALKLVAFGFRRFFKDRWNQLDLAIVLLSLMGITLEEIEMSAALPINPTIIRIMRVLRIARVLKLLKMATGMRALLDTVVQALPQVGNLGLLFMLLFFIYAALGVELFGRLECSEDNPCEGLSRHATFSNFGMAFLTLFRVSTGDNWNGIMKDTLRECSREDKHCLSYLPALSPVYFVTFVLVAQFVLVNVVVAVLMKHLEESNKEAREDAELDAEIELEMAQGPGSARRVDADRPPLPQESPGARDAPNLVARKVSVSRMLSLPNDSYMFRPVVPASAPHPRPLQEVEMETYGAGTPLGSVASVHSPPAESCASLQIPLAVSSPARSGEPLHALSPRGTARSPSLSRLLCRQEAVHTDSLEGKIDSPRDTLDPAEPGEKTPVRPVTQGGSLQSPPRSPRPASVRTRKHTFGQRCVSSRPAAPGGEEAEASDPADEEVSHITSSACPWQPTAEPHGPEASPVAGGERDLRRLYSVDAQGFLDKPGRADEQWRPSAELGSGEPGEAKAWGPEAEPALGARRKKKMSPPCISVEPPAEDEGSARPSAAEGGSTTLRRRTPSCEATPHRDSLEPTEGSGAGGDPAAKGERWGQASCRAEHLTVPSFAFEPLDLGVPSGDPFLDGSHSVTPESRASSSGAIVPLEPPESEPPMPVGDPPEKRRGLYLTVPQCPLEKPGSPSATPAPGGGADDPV
- Assay Comment: Intracellular calcium concentration measurement (Fluo-4 AM) in stable cells expressing human Cav3.2 channels, buffer A / buffer B
- Assay type: cell-based
- Assay Context: Table 1; buffer B, equilibrium potential of potassium −110 mV; read-out: Inhibitory action of buffer B (resting state or closed state)
pIC50: −log10 of the molar value. Where a name gives a salt, the structure may show the parent alone.
Assay Metric: pIC50

Below, 5 compounds whose answers are already recorded.
INSERT INTO measurements (compound, assay_metric, test_value) VALUES
  ('C[C@@H](NC(=O)C1CC1c1nc2ccccc2[nH]1)c1cnc(OCC(F)(F)F)s1 (single isomer, unassigned)', 'pIC50', '< 5.00'),
  ('C[C@H](NC(=O)C1CC1c1nc2ccccc2[nH]1)c1ccc(OCC(F)(F)F)s1 (single isomer, unassigned) [Example 2A]', 'pIC50', '< 5.00'),
  ('C[C@@H](NC(=O)[C@@H]1CCN(CCC(C)(C)C)C1)c1ccc(OCC(F)(F)F)s1 [Example 18, hydrochloride]', 'pIC50', '5.00 to 6.00'),
  ('C[C@@H](NC(=O)[C@@H]1CCN(CC(=O)NC(C)(C)C)C1)c1ccc(OCC(F)(F)F)s1.Cl [Example 15, hydrochloride]', 'pIC50', '5.00 to 6.00'),
  ('C[C@H](NC(=O)C1CC1c1nc2ccccc2[nH]1)c1ccc(OCC(F)(F)F)s1 (single isomer, unassigned) [Example 2B]', 'pIC50', '< 5.00');

Requested field: pIC50. Item: C[C@@H](NC(=O)C1CC1c1nc2ccccc2[nH]1)c1ccc(OCC(F)(F)F)s1 (single isomer, unassigned) [Example 3A] < 5.00

---

- Target System: human Cav3.2 channels (Homo sapiens, UniProt O95180)
- Construct: expressed in transfected cells; host or cells: HEK293 cells (ATCC No. CRL-1573), plasmid pcDNA3.1(+)
- Assay Comment: Electrophysiological evaluation, whole-cell patch-clamp with automatic patch-clamp system
- Type: cell-based
- Assay Context: 0.3 μM, holding potential −80 mV; read-out: Cav3.2 channel current inhibition ratio at 0.3 μM of test compound (holding potential −80 mV)
Each entry gets Not fulfilled if its inhibition at 0.3 µM stays under 40%, and Fulfilled if its inhibition at 0.3 µM is 40% or above.

As a guide, the following entries are already answered.
INSERT INTO measurements (compound, label) VALUES
  ('CC(NC(=O)[C@H]1C[C@@H]1c1nc2ccccc2[nH]1)c1nc2cc(F)ccc2s1 (stereo partly drawn)', 'Fulfilled'),
  ('CC(C)[C@@H](NC(=O)[C@H]1C[C@@H]1c1nc2ccccc2[nH]1)c1ccc(C(F)(F)F)s1', 'Fulfilled'),
  ('C[C@@H](NC(=O)[C@@H]1CCN(CC(=O)C(C)(C)C)C1)c1ccc(OCC(F)(F)F)s1', 'Not fulfilled'),
  ('C[C@@H](NC(=O)[C@H]1C[C@@H]1c1nc2ccccc2[nH]1)c1cc2cc(F)c(F)cc2o1', 'Fulfilled'),
  ('C[C@@H](NC(=O)C1CC1c1nc2ccccc2[nH]1)c1cnc(OCC(F)(F)F)s1 (single isomer, unassigned)', 'Not fulfilled');

Alright, here's another compound for you.
Decide: inhibition at 0.3 µM of C[C@@H](NC(=O)C1CC1c1nc2cc(Cl)ccc2[nH]1)c1cnc(OCC(F)(F)F)s1 (single isomer, unassigned) [Example 64A] >= 40%? Fulfilled

---

- Target System: human Cav3.2 channels (Homo sapiens)
- Construct: expressed in transfected cells; host or cells: HEK293 cells (ATCC No. CRL-1573), plasmid pcDNA3.1(+)
- Assay Comment: Intracellular calcium concentration measurement (Fluo-4 AM) in stable cells expressing human Cav3.2 channels, buffer A / buffer B
- Format: cell-based
- Assay Context: Table 1; buffer B, equilibrium potential of potassium −110 mV; read-out: Inhibitory action of buffer B (resting state or closed state)
- Method: Construction of Stable Cells Expressing Human Cav3.2 Channels […] Stable cell line expressing human Cav3.2 channels, which had been produced in (1), was seeded in a 96-well plate using DMEM medium including 10% FBS, and the cells were cultured for 48 hours under the conditions of 37° C. and 5% CO2. […] The cells were left to stand for another 15 minutes at room temperature in the dark, and the cells were analyzed using the following method using a microplate reader, EnVision (PerkinElmer, Inc.). […]
In this section, each of the compounds is paired with its reported IC50.

Requested field: IC50. Item: C[C@@H](NC(=O)C1CC1c1nc2ccccc2n1C)c1ccc(OCC(F)(F)F)s1 (single isomer, unassigned) [Example 4A] > 10 µM

Then what about the compound C[C@H](NC(=O)C1CC1c1nc2ccccc2[nH]1)c1cnc(OCC(F)(F)F)s1 (single isomer, unassigned) [Example 7A] ? > 10 µM

Then what about the compound C[C@@H](NC(=O)C1CC1c1nc2ccccc2[nH]1)c1ncc(Br)s1 (single isomer, unassigned) [Example 11A] ? > 10 µM

---

- Target System: human Cav3.2 channels (Homo sapiens, UniProt O95180)
- Construct: expressed in transfected cells; host or cells: HEK293 cells (ATCC No. CRL-1573), plasmid pcDNA3.1(+)
- Assay Comment: Intracellular calcium concentration measurement (Fluo-4 AM) in stable cells expressing human Cav3.2 channels, buffer A / buffer B
- Assay type: cell-based
- Assay Context: Tables 2 to 6; buffer A, equilibrium potential of potassium −92 mV; read-out: Inhibitory action of buffer A (inactivated state)
Assay Metric: IC50

Below, 3 compounds whose answers are already recorded.
INSERT INTO results (compound, test_value) VALUES
  ('C[C@@H](NC(=O)[C@H]1C[C@@H]1c1nc2ccccc2[nH]1)c1cc2ccc(F)cc2o1', '≤ 0.1 µM'),
  ('C[C@@H](NC(=O)[C@H]1C[C@@H]1c1nc2ccccc2[nH]1)c1cc2c(F)cc(F)cc2o1', '≤ 0.1 µM'),
  ('COc1ccc2[nH]c(C3CC3C(=O)N[C@H](C)c3ccc(OCC(F)(F)F)s3)nc2c1 (single isomer, unassigned) [Example 71B]', '0.1 to 1 µM');

Now consider the entry below.
Form: Entry = C[C@@H](NC(=O)[C@H]1C[C@@H]1c1nc2ccccc2[nH]1)c1ccc2c(c1)CCO2 | System = human Cav3.2 channels (Homo sapiens, UniProt O95180) | IC50 = ____ 0.1 to 1 µM

---

- Target System: human Cav3.2 channels (Homo sapiens)
- Construct: expressed in transfected cells; host or cells: HEK293 cells (ATCC No. CRL-1573), plasmid pcDNA3.1(+)
- Assay Comment: Intracellular calcium concentration measurement (Fluo-4 AM) in stable cells expressing human Cav3.2 channels, buffer A / buffer B
- Assay type: cell-based
- Assay Context: Table 1; buffer B, equilibrium potential of potassium −110 mV; read-out: Inhibitory action of buffer B (resting state or closed state)
pIC50: −log10 of the molar value.
In this section, each of the compounds is paired with its reported pIC50.

Form: Entry = C[C@@H](NC(=O)[C@@H]1CCN(CC(=O)Nc2nccs2)C1)c1ccc(OCC(F)(F)F)s1 | System = human Cav3.2 channels (Homo sapiens) | pIC50 = ____ 5.00 to 6.00

Then what about the compound C[C@@H](NC(=O)[C@@H]1CCN(CC(=O)Nc2ccccc2)C1)c1ccc(OCC(F)(F)F)s1.Cl [Example 17, hydrochloride] ? 5.00 to 6.00

Then what about the compound C[C@H](NC(=O)C1CC1c1nc2ccccc2[nH]1)c1cnc(OCC(F)(F)F)s1 (single isomer, unassigned) [Example 7B] ? < 5.00

Origin of the recorded values: patent US11420944B2
